Origin of the recorded values: patent US12384775B2

The following molecules are listed with their measured recovery at 5 μM values.
Assay: Plasma protein binding, equilibrium dialysis (RED), rat
Type: in vitro ADME
Conditions: Rat plasma, drug 5 μM
MEASUREMENT LABEL: recovery at 5 μM (%)

INSERT INTO results (molecule, measurement_label, readout_number) VALUES
  ('CCO[C@H]1CC[C@H](n2cc(NC(=O)c3csc(-c4cn[nH]c4)n3)c(-c3nc(F)ccc3F)n2)CC1 [Comparison-1, reference compound]', 'recovery at 5 μM', 68.3),
  ('CCO[C@H]1CC[C@H](n2cc(NC(=O)c3csc(-c4cn[nH]c4)n3)c(-c3ncccn3)n2)CC1', 'recovery at 5 μM', 73.9);
